target: Muscarinic acetylcholine receptor M4 (Homo sapiens); test: Positive allosteric modulation of human M4 receptor expressed in CHO cells co-expressing Gqi5 assessed as increase in acetylcholine-induced calcium mobilization incubated with EC20 ACh for 140 secs and subsequent EC80 Ach addition further incubated for 120 secs by Fluo-4-AM dye based fluorescence …
Param label: returns criterion met when Emax < 80%, returns criterion not met otherwise, including exact equality.

| smiles.entry | assigned.category |
| --- | --- |
| Cc1nnc2ccc(C(=O)NC3CN(c4cc(Cl)ncc4Cl)C3)cc2c1C | criterion not met |
| COc1cc(N2CC(NC(=O)c3ccc4nnc(C)c(C)c4c3)C2)c(Cl)cn1 | criterion met |
| Cc1nnc2ccc(C(=O)NC3CN(c4cccc(C(F)(F)F)n4)C3)cc2c1C | criterion met |
| Cc1nnc2ccc(C(=O)NC3CN(c4cccc(Cl)n4)C3)cc2c1C | criterion met |

Shift focus to the following entry.
Input line: Dear reviewer, please state whether "Cc1nnc2ccc(C(=O)NC3CN(c4cccc(F)n4)C3)cc2c1C" has Emax strictly beneath 80%.
Output line: criterion not met
